Numbers sourced from patent US12139492B2.

biological target: BTK (Homo sapiens); assay: Degradation of BTK protein in Namalwa cells (Western blot; DC50, Dmax)
Dmax by entry:

Record excerpt, results attached:
[
  {
    "compound": "Nc1ncnc2c1c(-c1ccc(Oc3ccccc3)cc1)nn2C1CCN(C2CCN(C(=O)N3CCC(CN4CCN(c5ccc6c(c5)CN(C5CCC(=O)NC5=O)C6=O)CC4)CC3)CC2)CC1 (centres unmarked) [Compound 240]",
    "Dmax": "> 90%"
  },
  {
    "compound": "NC(=O)c1c(-c2ccc(Oc3ccccc3)cc2)nn2c1NCC[C@H]2C1CCN(C(=O)N2CCN(CCC3CCN(c4ccc5c(c4)CN(C4CCC(=O)NC4=O)C5=O)CC3)CC2)CC1 (some centres unmarked) [Compound 300]",
    "Dmax": "> 75%"
  },
  {
    "compound": "NC(=O)c1c(-c2ccc(Oc3ccccc3)cc2)nn2c1NCC[C@H]2C1CCN(C2CCN(CCN3CCN(c4ccc5c(c4)C(=O)N(C4CCC(=O)NC4=O)C5=O)CC3)CC2)CC1 (some centres unmarked) [Compound 323]",
    "Dmax": "> 75%"
  },
  {
    "compound": "NC(=O)c1c(-c2ccc(Oc3ccccc3)cc2)nn2c1NCCC2C1CCN(CC2CCN(CCN3CCC(c4ccc5c(c4)CN(C4CCC(=O)NC4=O)C5=O)CC3)CC2)CC1 (centres unmarked) [Compound 320]",
    "Dmax": "> 90%"
  }
]

Dmax measured on Nc1ncnc2c1c(-c1ccc(Oc3ccccc3)cc1)nn2C1CCN(CC2CCN(CCCC3CCN(c4ccc5c(c4)C(=O)N(C4CCC(=O)NC4=O)C5=O)CC3)CC2)CC1 (centres unmarked) [Compound 211] = > 75%

----------
molecular target: BTK (Homo sapiens); test: Degradation of BTK protein in Namalwa cells (Western blot; DC50, Dmax)
parameterMeasured: Dmax

[
  {
    "molecule": "NC(=O)c1c(-c2ccc(Oc3ccccc3)cc2)nn2c1NCC[C@H]2C1CCN(C2CCN(C(=O)N3CCN(CC4CCN(c5ccc6c(c5)C(=O)N(C5CCC(=O)NC5=O)C6=O)CC4)CC3)CC2)CC1 (some centres unmarked)",
    "experimentalSystem": "BTK (Homo sapiens)",
    "Dmax": "> 75%"
  },
  {
    "molecule": "Nc1ncnc2c1c(-c1ccc(Oc3ccccc3)cc1)nn2C1CCN(C2CCN(C(=O)N3CCC(CN4CCN(c5ccc6c(c5)C(=O)N(C5CCC(=O)NC5=O)C6=O)CC4)CC3)CC2)CC1 (centres unmarked)",
    "experimentalSystem": "BTK (Homo sapiens)",
    "Dmax": "> 90%"
  },
  {
    "molecule": "Nc1ncnc2c1c(-c1ccc(Oc3ccccc3)cc1)nn2[C@@H]1CCCN(C2CCN(C(=O)N3CCC(CCCN4CCC(c5ccc6c(c5)CN(C5CCC(=O)NC5=O)C6=O)CC4)CC3)CC2)C1 (some centres unmarked)",
    "experimentalSystem": "BTK (Homo sapiens)",
    "Dmax": "> 75%"
  },
  {
    "molecule": "NC(=O)c1c(-c2ccc(Oc3ccccc3)cc2)nn2c1NCC[C@H]2C1CCN(C2CCN(CCC3CCN(c4ccc5c(c4)CN(C4CCC(=O)NC4=O)C5=O)CC3)CC2)CC1 (some centres unmarked)",
    "experimentalSystem": "BTK (Homo sapiens)",
    "Dmax": "> 90%"
  }
]

Turning now to a further molecule:
Given the molecule Nc1ncnc2c1c(-c1ccc(Oc3ccccc3)cc1)nn2C1CCN(C2CCN(C(=O)N3CCN(CCCN4CCC(c5ccc6c(c5)C(=O)N(C5CCC(=O)NC5=O)C6=O)CC4)CC3)CC2)CC1 (centres unmarked) and test system BTK (Homo sapiens), the measured Dmax is > 90%

----------
target: BTK (Homo sapiens, UniProt Q06187); experiment: Degradation of BTK protein in Namalwa cells (Western blot; DC50, Dmax); conditions: read-out: Dmax (BTK degradation)
Sequence (Q06187 whole entry): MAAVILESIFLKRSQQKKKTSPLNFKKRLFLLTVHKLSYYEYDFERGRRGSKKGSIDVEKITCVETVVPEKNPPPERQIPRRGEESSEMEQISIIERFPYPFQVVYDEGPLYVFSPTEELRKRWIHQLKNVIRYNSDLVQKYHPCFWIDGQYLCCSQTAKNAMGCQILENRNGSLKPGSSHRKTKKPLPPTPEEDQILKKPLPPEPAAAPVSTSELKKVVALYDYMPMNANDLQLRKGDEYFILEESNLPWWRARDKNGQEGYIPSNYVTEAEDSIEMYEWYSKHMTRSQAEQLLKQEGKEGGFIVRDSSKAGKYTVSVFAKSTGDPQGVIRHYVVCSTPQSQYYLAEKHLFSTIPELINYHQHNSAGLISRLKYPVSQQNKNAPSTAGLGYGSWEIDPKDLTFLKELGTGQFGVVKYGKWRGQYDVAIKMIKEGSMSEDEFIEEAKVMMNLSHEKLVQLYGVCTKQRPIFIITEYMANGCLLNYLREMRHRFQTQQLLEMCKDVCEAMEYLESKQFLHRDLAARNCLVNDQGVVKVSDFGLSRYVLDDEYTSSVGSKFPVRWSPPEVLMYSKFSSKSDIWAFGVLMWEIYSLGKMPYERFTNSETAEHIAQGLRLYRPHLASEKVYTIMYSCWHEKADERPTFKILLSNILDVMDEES
parameterMeasured: Dmax

Record excerpt, results attached:
[
  {
    "molecule": "Nc1ncnc2c1c(-c1ccc(Oc3ccccc3)cc1)nn2C1CCN(CCCN2CCC(CN3CCC(c4ccc5c(c4)oc(=O)n5C4CCC(=O)NC4=O)CC3)CC2)CC1 (stereo not drawn) [Compound 546]",
    "Dmax": "> 90%"
  },
  {
    "molecule": "Nc1ncnc2c1c(-c1ccc(Oc3ccccc3)cc1)nn2C1CCN(C2CCN(CC3CN(c4ccc5c(c4)CN(C4CCC(=O)NC4=O)C5=O)C3)CC2)CC1 (stereo not drawn) [Compound 434]",
    "Dmax": "> 90%"
  }
]

Turning now to a further molecule:
Dmax measured on Nc1ncnc2c1c(-c1ccc(Oc3ccccc3)cc1)nn2C1CCN(C2CCN(CCCN3CCN(c4ccc(N5CCC(=O)NC5=O)cc4)CC3)C2)CC1 (stereo not drawn) [Compound 577] = > 90%

----------
target: BTK (Homo sapiens, UniProt Q06187); assay: Degradation of BTK protein in Namalwa cells (Western blot; DC50, Dmax); conditions: read-out: Dmax (BTK degradation)
parameterMeasured: Dmax

[
  {
    "molecule": "Nc1ncnc2c1c(-c1ccc(Oc3ccccc3)cc1)nn2[C@@H]1CCCN(C(=O)NCCN2CCN(c3ccc4c(c3)C(=O)N(C3CCC(=O)NC3=O)C4=O)CC2)C1 (stereo partly drawn)",
    "Dmax": "> 90%"
  }
]

Dmax measured on Nc1ncnc2c1c(-c1ccc(Oc3ccccc3)cc1)nn2C1CCN(CCN2CCC(CN3CCN(c4ccc5c(c4)CN(C4CCC(=O)NC4=O)C5=O)CC3)C2)CC1 (stereo not drawn) = > 75%

Dmax measured on Nc1ncnc2c1c(-c1ccc(Oc3ccccc3)cc1)nn2C1CCN(CCN2CCN(CCSc3ccc4c(c3)CN(C3CCC(=O)NC3=O)C4=O)CC2)CC1 (stereo not drawn) = > 50%

----------
target: BTK (Homo sapiens, UniProt Q06187); assay: BTK degradation, DC50 and Dmax of Table 1 (cell line not given); format: cell-based; set-up: endogenous in cells; conditions: concentration giving 50% reduction of BTK expression level
DC50 by entry:

Record excerpt, results attached:
[
  {
    "molecule": "Nc1ncnc2c1c(-c1ccc(Oc3ccccc3)cc1)nn2[C@@H]1CCCN(CC2CCN(CCC3CCN(c4ccc5c(c4)CN(C4CCC(=O)NC4=O)C5=O)CC3)CC2)C1 (some centres unmarked)",
    "parameterMeasured": "DC50",
    "valueReported": "10 to 50 nM"
  },
  {
    "molecule": "Nc1ncnc2c1c(-c1ccc(Oc3ccccc3)cc1)nn2[C@@H]1CCCN(C2CCN(C(=O)N3CCN(CCCC4CCN(c5ccc6c(c5)CN(C5CCC(=O)NC5=O)C6=O)CC4)CC3)CC2)C1 (some centres unmarked)",
    "parameterMeasured": "DC50",
    "valueReported": "> 50 nM"
  },
  {
    "molecule": "Nc1ncnc2c1c(-c1ccc(Oc3ccccc3)cc1)nn2[C@@H]1CCCN(CC2CCN(C(=O)N3CCC(CN4CCN(c5ccc6c(c5)C(=O)N(C5CCC(=O)NC5=O)C6=O)CC4)CC3)CC2)C1 (some centres unmarked)",
    "parameterMeasured": "DC50",
    "valueReported": "10 to 50 nM"
  }
]

DC50 measured on Nc1ncnc2c1c(-c1ccc(Oc3ccccc3)cc1)nn2[C@@H]1CCCN(C2CCN(C(=O)N3CCN(CCN4CCC(c5ccc6c(c5)C(=O)N(C5CCC(=O)NC5=O)C6=O)CC4)CC3)CC2)C1 (some centres unmarked) = 10 to 50 nM

DC50 measured on Nc1ncnc2c1c(-c1ccc(Oc3ccccc3)cc1)nn2[C@@H]1CCCN(CC2CCN(C(=O)N3CCC(CCN4CCN(c5ccc6c(c5)CN(C5CCC(=O)NC5=O)C6=O)CC4)CC3)CC2)C1 (some centres unmarked) = > 50 nM

DC50 measured on Nc1ncnc2c1c(-c1ccc(Oc3ccccc3)cc1)nn2[C@@H]1CCCN(C2CCN(C(=O)N3CCC(CN4CCN(c5ccc6c(c5)C(=O)N(C5CCC(=O)NC5=O)C6=O)CC4)CC3)CC2)C1 (some centres unmarked) = 10 to 50 nM

DC50 measured on Nc1ncnc2c1c(-c1ccc(Oc3ccccc3)cc1)nn2[C@@H]1CCCN(C(=O)N2CCN(CCC3CCN(c4ccc5c(c4)CN(C4CCC(=O)NC4=O)C5=O)CC3)CC2)C1 (some centres unmarked) = < 10 nM

----------
biological target: BTK (Homo sapiens, UniProt Q06187); assay: BTK degradation, DC50 and Dmax of Table 1 (cell line not given); format: cell-based; design: endogenous in cells; details: concentration giving 50% reduction of BTK expression level
parameterMeasured: DC50

Record excerpt, results attached:
[
  {
    "molecule": "Nc1ncnc2c1c(-c1ccc(Oc3ccccc3)cc1)nn2[C@@H]1CCCN(C(=O)N2CCN(CCN3CCN(c4ccc5c(c4)C(=O)N(C4CCC(=O)NC4=O)C5=O)CC3)CC2)C1 (some centres unmarked) [Compound 65]",
    "DC50": "< 10 nM"
  },
  {
    "molecule": "Nc1ncnc2c1c(-c1ccc(Oc3ccccc3)cc1)nn2C1CCN(CCOCCN2CCC(c3ccc4c(c3)CN(C3CCC(=O)NC3=O)C4=O)CC2)CC1 (centres unmarked) [Compound 12]",
    "DC50": "10 to 50 nM"
  }
]

DC50 measured on Nc1ncnc2c1c(-c1ccc(Oc3ccccc3)cc1)nn2C1CCN(C(=O)N2CCC(CCN3CCC(c4ccc5c(c4)CN(C4CCC(=O)NC4=O)C5=O)CC3)CC2)CC1 (centres unmarked) [Compound 104] = 10 to 50 nM

DC50 measured on Nc1ncnc2c1c(-c1ccc(Oc3ccccc3)cc1)nn2C1CCN(C(=O)N2CCN(CCCN3CCN(c4ccc5c(c4)C(=O)N(C4CCC(=O)NC4=O)C5=O)CC3)CC2)CC1 (centres unmarked) [Compound 119] = > 50 nM

DC50 measured on Nc1ncnc2c1c(-c1ccc(Oc3ccccc3)cc1)nn2[C@@H]1CCCN(C2CCN(CC3CCN(c4ccc5c(c4)C(=O)N(C4CCC(=O)NC4=O)C5=O)CC3)CC2)C1 (some centres unmarked) [Compound 143] = 10 to 50 nM
